System: OVCAR-4 ovarian
Assay: NCI tumour cell line growth inhibition, 48 h
Exercise: for every item that follows, state its recorded TGI.

// known answers, use as guide
compound | TGI
COc1ccc(/C=C/C(=O)c2ccc(Nc3nc(Nc4ccc(F)cc4)nc(Nc4ccc(Cl)cc4)n3)cc2)cc1 | > 100 µM
Cc1ccc(S(=O)(=O)ON2C(=O)c3c(N)c(C#N)c(-c4ccccc4)c(-c4ccccc4)c3C2=O)cc1 | 52.4 µM
NC(=S)N/N=C(\CCC(=O)Nc1ccccc1[N+](=O)[O-])CC(=O)c1ccco1 | > 100 µM
CC(=O)OCC1OC([Se-])C(OC(C)=O)C(OC(C)=O)C1OC(C)=O.N#CCC[PH+](CCC#N)CCC#N.[Au+] (centres undefined) | 65.8 µM
Nc1nc(Br)nc2ncn(C3CC(O)C(CO)O3)c12 (centres undefined) | > 100 µM
COc1ccc(-n2c(Cn3nnc(-c4cccnc4)n3)nn(C3OC(COC(=O)c4ccccc4)C(OC(=O)c4ccccc4)C3OC(=O)c3ccccc3)c2=S)cc1 (centres undefined) | > 100 µM

Take each entry in turn and give its TGI.
1. CCCOc1ccc(/C=N/Nc2cc(C)nc3ccc(Cl)cc23)cc1
2. Cc1cc(C)c(NC(=O)/C=C/c2ccccc2)c(C)c1
3. CC(Cc1cccc2c1Nc1ccccc1S2)N(C)CCO (centres undefined)

1: 3.2 µM; 2: > 100 µM; 3: > 100 µM

---

Tested on: LOX IMVI melanoma
Assay: NCI tumour cell line growth inhibition, 48 h; in the data active = GI50 below about 0.43 µM; inactive = the rest
Answer with one of the outcomes active, inactive

Solved entries:
compound | classification
N#C/C(=C\c1ccc(F)cc1)n1nc2cccc(F)c2n1 | inactive
O=c1[nH]c(F)nc2c1ncn2C1OC(CO)C(O)C1O (centres undefined) | inactive

What call does the record list for "O=C1C(=C([O-])c2ccccc2)C(=O)c2ccccc21.O=C1C(=C([O-])c2ccccc2)C(=O)c2ccccc21.[Co+2]" ?
inactive

What call does the record list for CC(=O)OCC1OC([Se-])C(OC(C)=O)C(OC(C)=O)C1OC(C)=O.N#CCC[PH+](CCC#N)CCC#N.[Au+] (centres undefined) ?
inactive

What call does the record list for "O=C(/C=C/c1nnc2n(Cc3ccccc3)c(=O)c3c4c(sc3n12)CCCC4)c1ccccc1" ?
inactive

---

Test system: 786-0 renal
Experiment: NCI tumour cell line growth inhibition, 48 h
Exercise: for every item that follows, state its recorded TGI.

// known answers, use as guide
compound | TGI
COc1ccc2[nH]c3c4c(cc(-c5ccccc5)c3c2c1)C(=O)N(c1ccccc1)C4=O | 29.5 µM
CCCCCCCc1cscc1-c1cscc1Br | > 100 µM
NC(=S)N/N=C(\CCC(=O)Nc1ccccc1[N+](=O)[O-])CC(=O)c1ccco1 | > 100 µM

Take each entry in turn and give its TGI.
1. CS(=N)(=O)CCC(N)P(=O)(O)O (stereo unspecified)
2. c1ccc(-c2cc(-c3ccncc3)cc(-c3ccncc3)n2)cc1

1. > 100 µM
2. > 100 µM

Take each entry in turn and give its TGI.
1. N#Cc1c2ccccc2c2nnc3ccccc3n12
2. CC(C)(CN1CCCCC1)C(=O)CC(SCCN)c1ccc(Cl)cc1 (stereo unspecified)
3. CC(=O)OCC1OC([Se-])C(OC(C)=O)C(OC(C)=O)C1OC(C)=O.N#CCC[PH+](CCC#N)CCC#N.[Au+] (stereo unspecified)
4. CCN(CC)C(=S)N/N=C/c1cc(OC)ccc1O
5. Cn1c(NCC(CN2CCCC2)OC(=O)c2ccccc2)cc(=O)n(C)c1=O (stereo unspecified)
6. O=C1NC(=O)C(c2ccccc2)=C1Nc1ccccc1

1. > 100 µM
2. 3.21 µM
3. 53.3 µM
4. > 100 µM
5. > 100 µM
6. > 25 µM
